The reported numbers originate from patent US20240400703A1.

# testedOn: recombinant human OX40 fused to a His-tag (Acro Biosystems, cat. no. OX0-H5224) (human) (UniProt P43489)
# Sequence (P43489 29-214 limits assumed): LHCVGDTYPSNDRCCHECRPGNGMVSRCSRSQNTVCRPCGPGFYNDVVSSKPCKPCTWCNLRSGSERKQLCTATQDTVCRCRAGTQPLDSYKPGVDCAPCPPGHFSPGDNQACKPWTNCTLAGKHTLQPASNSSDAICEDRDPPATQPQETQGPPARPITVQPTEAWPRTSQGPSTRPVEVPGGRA
# experimentalDetails: BLI cross-block; first Ab (competitor): IgG1-CD134-INCAGN1949
testReadout: association response (nm)
Use nm as the unit, but write only the number.

Data request, read-out association response, for IgG1-CD134-GBR830 (antibody, INN chains, looked up, V domains shown, IgG1) VH: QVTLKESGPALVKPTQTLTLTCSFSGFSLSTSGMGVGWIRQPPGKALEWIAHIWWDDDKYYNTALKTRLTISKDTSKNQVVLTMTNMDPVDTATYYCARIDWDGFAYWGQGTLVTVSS VL: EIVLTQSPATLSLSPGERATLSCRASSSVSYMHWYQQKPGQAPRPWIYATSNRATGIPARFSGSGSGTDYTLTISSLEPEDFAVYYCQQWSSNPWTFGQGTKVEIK
0.01
